Give measured half-life for each item. Keep answers brief.
procedure-summary: t1/2 in rat
Type: ADME, organism-based
measurement-conditions: in vivo
Answers are plain numbers, in h.

Completed entries (count: 8):
Measured half-life, CN1C=C(C(=O)NCCCN2CCC(c3ccc(F)cc3C#N)CC2)[C@@H](c2ccc(F)c(F)c2)NC1=O : 0.8

Measured half-life of O=C1NC=C(C(=O)NCCCN2CCC(O)(c3ccc(F)cc3)CC2)[C@@H](c2ccc(F)c(F)c2)N1 : 0.617

Looking up CN1C=C(C(=O)NCCCN2CCC(C#N)(c3ccc(F)cc3)CC2)[C@@H](c2ccc(F)c(F)c2)NC1=O , I found its half-life recorded as 1.1

Input CC1=C(C(=O)NCCCN2CCC(c3ccc(F)cc3)CC2)[C@@H](c2ccc(F)c(F)c2)NC(=O)N1 . Output half-life: 1.7

Record summary for CC1=C(C(=O)NCCCN2CCC(C#N)(c3ccc(F)cc3)CC2)[C@@H](c2ccc(F)c(F)c2)NC(=O)N1C : reported half-life = 0.75

The recorded half-life for entry CN1C=C(C(=O)NCCCN2CCC(C#N)(c3ccc(F)cc3)CC2)[C@H](c2ccc(F)c(F)c2)NC1=O equals 1.2

Entry under test: CC1=C(C(=O)NCCCN2CCC(c3ccc(F)cc3C#N)CC2)[C@@H](c2ccc(F)c(F)c2)NC(=O)N1C . Its half-life was 2.2

Entry under test: COCC1=C(C(=O)NCCCN2CCC(c3ccc(F)cc3)CC2)[C@@H](c2ccc(F)c(F)c2)NC(=O)N1 . Its half-life was 6.47

Batch lookup, half-life per entry.
1. CC1=C(C(=O)NCCCN2CCC(c3ccc(F)cc3)CC2)[C@@H](c2ccc(F)c(F)c2)N(C)C(=O)N1C
2. N#Cc1ccccc1C1CCN(CCCNC(=O)C2=CNC(=O)N[C@@H]2c2ccc(F)c(F)c2)CC1
3. N#CC1(c2ccc(F)cc2)CCN(CCCNC(=O)C2=CNC(=O)N[C@@H]2c2ccc(F)c(F)c2)CC1
4. CC1=C(C(=O)NCCCN2CCC(c3ccccc3C#N)CC2)[C@@H](c2ccc(F)c(F)c2)NC(=O)N1
5. CC1=C(C(=O)NCCCN2CCC(c3ccccn3)CC2)[C@@H](c2ccc(F)c(F)c2)NC(=O)N1

Solution:
2.3
0.717
2.33
2.7
0.7

* * *

system: Alpha-1A adrenergic receptor (Homo sapiens)
Sequence (P35348 whole entry): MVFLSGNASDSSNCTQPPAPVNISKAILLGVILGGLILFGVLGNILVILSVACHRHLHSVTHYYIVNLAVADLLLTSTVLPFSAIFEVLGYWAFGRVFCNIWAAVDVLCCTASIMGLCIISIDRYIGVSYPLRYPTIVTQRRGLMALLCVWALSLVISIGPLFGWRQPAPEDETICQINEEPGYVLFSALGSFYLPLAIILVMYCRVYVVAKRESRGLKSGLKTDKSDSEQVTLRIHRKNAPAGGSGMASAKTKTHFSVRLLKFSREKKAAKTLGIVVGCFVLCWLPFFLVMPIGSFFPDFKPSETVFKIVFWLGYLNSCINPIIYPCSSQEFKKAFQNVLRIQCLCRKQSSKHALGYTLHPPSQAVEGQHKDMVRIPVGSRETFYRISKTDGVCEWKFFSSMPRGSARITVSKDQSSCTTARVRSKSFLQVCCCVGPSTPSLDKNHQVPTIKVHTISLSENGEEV
procedure-summary: Ability to displace [125I]- HEAT from human cloned Alpha-1A adrenergic receptor stably expressed in CHO cells.
Assay type: cell-based
Consider the following compounds; for each one, report its Ki.

Recorded results for 7 compounds are shown here.
Notebook: CC1=C(C(=O)NCCCN2CCC(c3ccc(F)cc3)CC2)[C@@H](c2ccc(F)c(F)c2)NC(=O)N1C , Ki read as 0.18 nM

Record summary for CN1C=C(C(=O)NCCCN2CCC(C#N)(c3ccc(F)cc3)CC2)[C@H](c2ccc(F)c(F)c2)NC1=O : reported Ki = 2.3 nM

The recorded Ki for O=C1NC(C(F)(F)F)=C(C(=O)NCCCN2CCC(c3ccc(F)cc3)CC2)[C@@H](c2ccc(F)c(F)c2)N1 is 19 nM

Reported Ki ( CC1=C(C(=O)NCCCN2CCC(c3ccc(F)cc3)CC2)[C@@H](c2ccc(F)c(F)c2)NC(=O)N1 ) = 0.39 nM

For this compound ( CC1=C(C(=O)NCCCN2CCC(c3ccc(F)cc3)CC2)[C@@H](c2ccc(F)c(F)c2)N(C)C(=O)N1C ), measured Ki is 0.18 nM

Entry CC1=C(C(=O)NCCCN2CCC(c3ccc(F)cc3)CC2)[C@H](c2ccc(F)c(F)c2)N(C)C(=O)N1C — recorded Ki = 11 nM

According to the records, this compound CN1C=C(C(=O)NCCCN2CCC(C#N)(c3ccc(F)cc3)CC2)[C@@H](c2ccc(F)c(F)c2)NC1=O displays Ki of 0.12 nM

Query compound follows.
For reference, reported Ki for COCC1=C(C(=O)NCCCN2CCC(c3ccc(F)cc3)CC2)[C@@H](c2ccc(F)c(F)c2)NC(=O)N1 stands at 0.24 nM

* * *

Field: Ki. Provide a value for each of the compounds that follow.
system: Alpha-1D adrenergic receptor (Homo sapiens, UniProt P25100)
Sequence (P25100 whole entry): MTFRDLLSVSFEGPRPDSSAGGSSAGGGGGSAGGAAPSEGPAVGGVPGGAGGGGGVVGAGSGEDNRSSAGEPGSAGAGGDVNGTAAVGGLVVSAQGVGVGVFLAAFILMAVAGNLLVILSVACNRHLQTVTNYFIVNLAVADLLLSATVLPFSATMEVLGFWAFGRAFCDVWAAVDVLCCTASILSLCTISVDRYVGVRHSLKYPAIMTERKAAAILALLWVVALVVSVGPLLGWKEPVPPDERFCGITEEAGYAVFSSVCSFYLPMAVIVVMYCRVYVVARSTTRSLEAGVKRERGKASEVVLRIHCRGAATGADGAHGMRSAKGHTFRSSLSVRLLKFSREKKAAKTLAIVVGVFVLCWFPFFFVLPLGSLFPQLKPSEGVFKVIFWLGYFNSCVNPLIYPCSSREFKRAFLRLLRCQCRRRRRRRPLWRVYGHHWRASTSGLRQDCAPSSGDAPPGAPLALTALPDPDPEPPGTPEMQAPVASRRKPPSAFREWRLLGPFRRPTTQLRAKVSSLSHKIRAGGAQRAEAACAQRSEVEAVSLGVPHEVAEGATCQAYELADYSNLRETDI
procedure-summary: Ability to displace [125I]- HEAT from human cloned Alpha-1D adrenergic receptor stably expressed in HEK cells.
Type: cell-based, HEK293
Write the figure, then the unit, nothing else.

Example compounds with recorded Ki:
Measured Ki for this entry CN1C=C(C(=O)NCCCN2CCC(C#N)(c3ccc(F)cc3)CC2)[C@@H](c2ccc(F)c(F)c2)NC1=O on Alpha-1D adrenergic receptor (Homo sapiens, UniProt P25100): 240 nM

Form field Ki for item CC1=C(C(=O)NCCCN2CCC(c3ccc(F)cc3)CC2)[C@@H](c2ccc(F)c(F)c2)NC(=O)N1 on Alpha-1D adrenergic receptor (Homo sapiens, UniProt P25100): 240 nM

GET /values?item= CC1=C(C(=O)NCCCN2CCC(c3ccc(F)cc3)CC2)[C@H](c2ccc(F)c(F)c2)N(C)C(=O)N1C &system= Alpha-1D adrenergic receptor (Homo sapiens, UniProt P25100) returns Ki: 410 nM

Measured Ki (Alpha-1D adrenergic receptor (Homo sapiens, UniProt P25100)), entry CC1=C(C(=O)NCCCN2CCC(c3ccc(F)cc3)CC2)[C@@H](c2ccc(F)c(F)c2)N(C)C(=O)N1C : 200 nM

Let me check: CC1=C(C(=O)NCCCN2CCC(c3ccc(F)cc3)CC2)[C@H](c2ccc(F)c(F)c2)NC(=O)N1C , system Alpha-1D adrenergic receptor (Homo sapiens, UniProt P25100), measured Ki is 600 nM

Provide reported Ki for each item, in the same order as listed.
1. CN1C=C(C(=O)NCCCN2CCC(C#N)(c3ccc(F)cc3)CC2)[C@H](c2ccc(F)c(F)c2)NC1=O
2. CC1=C(C(=O)NCCCN2CCC(c3ccc(F)cc3)CC2)[C@@H](c2ccc(F)c(F)c2)NC(=O)N1C

Solution:
1: 710 nM; 2: 590 nM

* * *

procedure-summary: The compound was evaluated for the bioavailability when dosed 0.5 mg/kg intravenously and 1 mg/kg perorally in dog.
Type: ADME, organism-based, Canis lupus familiaris
measurement-conditions: in vivo, po
assay-metric: bioavailability
Dear colleague, please send the value followed by its unit.

Form: compound = COCC1=C(C(=O)NCCCN2CCC(c3ccc(F)cc3)CC2)[C@@H](c2ccc(F)c(F)c2)NC(=O)N1 ; bioavailability = 40%

* * *

Provide the recorded Duration for the entries that follow.
Species on record: Rattus norvegicus
procedure-summary: Duration of action with repeated challenges of A61603 agonist in rat
Assay type: functional
Give bare numbers, in h.

Reference set (3 entries):
get_value(item= COCC1=C(C(=O)NCCCN2CCC(c3ccc(F)cc3)CC2)[C@@H](c2ccc(F)c(F)c2)NC(=O)N1 , readout=Duration) returns 1

According to the records, this molecule CN1C=C(C(=O)NCCCN2CCC(C#N)(c3ccc(F)cc3)CC2)[C@@H](c2ccc(F)c(F)c2)NC1=O displays Duration of 4

GET /value?item= N#Cc1cc(F)ccc1C1CCN(CCCNC(=O)C2=CNC(=O)N[C@@H]2c2ccc(F)c(F)c2)CC1 &field=Duration returns 2

Here are 2 molecules. What values of Duration were reported for them?
1. CN1C=C(C(=O)NCCCN2CCC(C#N)(c3ccc(F)cc3C#N)CC2)[C@@H](c2ccc(F)c(F)c2)N(C)C1=O
2. CC1=C(C(=O)NCCCN2CCC(c3ccc(F)cc3C#N)CC2)[C@@H](c2ccc(F)c(F)c2)NC(=O)N1C

Solution:
3
2.5

COCC1=C(C(=O)NCCCN2CCC(c3ccccc3C#N)CC2)[C@@H](c2ccc(F)c(F)c2)NC(=O)N1 has a reported Duration of 0.6

* * *

procedure-summary: t1/2 in rat
Format: ADME, organism-based
measurement-conditions: in vivo
assay-metric: half-life (h)
Numbers only, in h.

Field: example entries. Status: answers known.
Sample N#Cc1cc(F)ccc1C1CCN(CCCNC(=O)C2=CNC(=O)N[C@@H]2c2ccc(F)c(F)c2)CC1 ; half-life observed: 2.9

Recorded half-life (compound COCC1=C(C(=O)NCCCN2CCC(c3ccccc3C#N)CC2)[C@@H](c2ccc(F)c(F)c2)NC(=O)N1 ): 1.8

Data point: CC1=C(C(=O)NCCCN2CCC(C#N)(c3ccc(F)cc3C#N)CC2)[C@@H](c2ccc(F)c(F)c2)NC(=O)N1C ; half-life = 0.4

What the record says about N#Cc1ccccc1C1(C#N)CCN(CCCNC(=O)C2=CNC(=O)N[C@@H]2c2ccc(F)c(F)c2)CC1 : half-life is 0.75

Data point: O=C1NC=C(C(=O)NCCCN2CCC(c3ccc(F)cc3)CC2)[C@@H](c2ccc(F)c(F)c2)N1 ; half-life = 1

The recorded half-life for CC1=C(C(=O)NCCCN2CCC(c3ccc(F)cc3)CC2)[C@@H](c2ccc(F)c(F)c2)NC(=O)N1C is 1.2

Would you mind giving half-life for every compound in the list below?
1. CN1C=C(C(=O)NCCCN2CCC(C#N)(c3ccc(F)cc3C#N)CC2)[C@@H](c2ccc(F)c(F)c2)N(C)C1=O
2. CC1=C(C(=O)NCCCN2CCC(c3ccc(F)cc3C#N)CC2)[C@@H](c2ccc(F)c(F)c2)NC(=O)N1
3. COCC1=C(C(=O)NCCCN2CCC(c3ccc(F)cc3C#N)CC2)[C@@H](c2ccc(F)c(F)c2)NC(=O)N1
4. COCC1=C(C(=O)NCCCN2CCC(c3ccccn3)CC2)[C@@H](c2ccc(F)c(F)c2)NC(=O)N1

Solution:
1. 0.25
2. 0.417
3. 2.92
4. 7
